From: the supplement of paper PMC10567573

Please provide measured protein stability index for the entries that follow.
B1: ZNF75A (parent)
chain: RTHTGEQPYTCSICRRNFSRRSSL

variants of: B1; assay: protein stability index of a GFP-peptide fusion (GPS, HEK-293T) (PSI 1-6); higher = more stable; conditions: c terminus: a fixed tail appended;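 note: lentivirally expressed fusions sorted by FACS into six bins by GFP to DsRed ratio, PSI derived from sequencing read proportions per bin multiplied by bin number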

The examples below pair each entry with its known result.
# seq-text, protein stability index
data = [
    ("RTHTGEQPYTCSICRRNFSRTSSL [R21T]", 2.84),
    ("RTYTGEQPYTCSICRRNFSRRSSL [H3Y]", 2.73),
]

Required: protein stability index, one value per variant below.
1. RTHTGEQPYTCSIERRNFSRRSSL [C14E]
2. RTHTGEQPYTCSICRRNFSRVSSL [R21V]
3. RTHTGEQGYTCSICRRNFSRRSSL [P8G]
4. RTHTGEQPYTCSICRRNFSRASSL [R21A]
5. RTHTGHQPYTCSICRRNFSRRSSL [E6H]
6. RTHTEEQPYTCSICRRNFSRRSSL [G5E]

Output line:
[4.42, 1.95, 3.4, 1.64, 3.12, 3.45]

Please look at the items below and tell me protein stability index for each one, in order.
1. RTHTGEQPYTCDICRRNFSRRSSL [S12D]
2. RTHTCEQPYTCSICRRNFSRRSSL [G5C]
3. RKHTGEQPYTCSICRRNFSRRSSL [T2K]
4. RTHTGEQPVTCSICRRNFSRRSSL [Y9V]
5. RTHTGEQPYTCSICRRNFSMRSSL [R20M]

Output line:
[3.1, 4.64, 2.47, 2.58, 2.15]

Give measured protein stability index for every item shown.
1. RTHTGEQSYTCSICRRNFSRRSSL [P8S]
2. RTHTGEQPYTCSICRRNFSRLSSL [R21L]

Output line:
2.81
1.79
